Where do the numbers come from? From patent US20210107874A1.

Test protocol: PK studies of formulations, plasma by HPLC-MS/MS
Type: in vivo
Particulars: bovine, plasma, sc, 1.25 mg/kg, FormF62.5 (polyethylene glycol, 1-octanol, 2-pyrrolidone), Cattle, 1.25 mg/kg, read-out: AUC
Recorded endpoint: AUC
Put your answer as a value accompanied by its unit after it.

Q: Determine from records and report AUC for CCOc1cc(NCCNC(=O)/C=C/C(F)(F)F)ccn1
Ans: 0.0785 µg·h/mL

---

Test protocol: PK studies of formulations, plasma by HPLC-MS/MS
Format: in vivo
Particulars: bovine, plasma, sc, 1.5 mg/kg, pH 4.4, FormO100 (L-tartaric acid, NaOH up to pH 4.4, water), Cattle, 1.5 mg/kg, read-out: Tmax
Recorded endpoint: Tmax (min)
Just the number in min, nothing appended.

Q: Determine from records and report Tmax for COc1cc(NCCNC(=O)/C=C/C(C)(F)F)ccn1 [Compound 5]
Ans: 18.6

---

Test protocol: PK studies of formulations, plasma by HPLC-MS/MS
Assay type: in vivo
Particulars: bovine, plasma, sc, 1.25 mg/kg, FormH62.5 (DMA, DMSO, 2-pyrrolidone), Cattle, 1.25 mg/kg, read-out: Tmax
Recorded endpoint: Tmax
Put your answer as a value accompanied by its unit after it.

Q: Determine from records and report Tmax for CCOc1cc(NCCNC(=O)/C=C/C(F)(F)F)ccn1
Ans: 40.2 min

---

Test protocol: PK studies of formulations, plasma by HPLC-MS/MS
Format: in vivo
Particulars: bovine, plasma, sc, 1.5 mg/kg, FormV100 (L-tartaric acid, propylene glycol 500 mg, benzylalcohol, water), Cattle, 1.5 mg/kg, read-out: AUC
Recorded endpoint: AUC
Put your answer as a value accompanied by its unit after it.

Q: Determine from records and report AUC for COc1cc(NCCNC(=O)/C=C/C(C)(F)F)ccn1 [Compound 5]
Ans: 1520 ng·h/mL

---

Test protocol: PK studies of formulations, plasma by HPLC-MS/MS
Format: in vivo
Particulars: bovine, plasma, sc, 1.5 mg/kg, FormW100 (L-tartaric acid, propylene glycol 300 mg, benzylalcohol, water), Cattle, 1.5 mg/kg, read-out: Cmax
Recorded endpoint: Cmax (ng/mL)
Just the number in ng/mL, nothing appended.

Q: Determine from records and report Cmax for COc1cc(NCCNC(=O)/C=C/C(C)(F)F)ccn1
Ans: 743

---

Test protocol: PK studies of formulations, plasma by HPLC-MS/MS
Format: in vivo
Particulars: bovine, plasma, sc, 0.75 mg/kg, pH 4.4, FormO50 (L-tartaric acid, NaOH up to pH 4.4, water), Cattle, 0.75 mg/kg, read-out: Cmax
Recorded endpoint: Cmax (ng/mL)
Just the number in ng/mL, nothing appended.

Q: Determine from records and report Cmax for COc1cc(NCCNC(=O)/C=C/C(C)(F)F)ccn1
Ans: 397

---

Test protocol: PK studies of formulations, plasma by HPLC-MS/MS
Format: in vivo
Particulars: bovine, plasma, sc, 1.25 mg/kg, Form B62.5 (dimethyl acetamide, propylene glycol, water), Cattle, 1.25 mg/kg, read-out: Tmax
Recorded endpoint: Tmax
Put your answer as a value accompanied by its unit after it.

Q: Determine from records and report Tmax for CCOc1cc(NCCNC(=O)/C=C/C(F)(F)F)ccn1
Ans: 30 min

---

Test protocol: PK studies of formulations, plasma by HPLC-MS/MS
Assay type: in vivo
Particulars: bovine, plasma, sc, 1.25 mg/kg, pH 4.4, Form O62.5 (FormO type: L-tartaric acid, NaOH to pH 4.4, water), Cattle, 1.25 mg/kg, read-out: AUC
Recorded endpoint: AUC (ng·h/mL)
Just the number in ng·h/mL, nothing appended.

Q: Determine from records and report AUC for CCOc1cc(NCCNC(=O)/C=C/C(F)(F)F)ccn1
Ans: 358
